For each of the compounds below, state its melting point.

The recorded melting point for entry Nc1nnc(SCC(CS(=O)(=O)c2ccc(-c3ccc(Cl)cc3)cc2)C(=O)O)s1 (centres unmarked) equals 184 to 186 °C

Sure, the documented melting point for Cc1cc(SCC(CS(=O)(=O)c2ccc(-c3ccc(Cl)cc3)cc2)C(=O)O)nc(C)n1 (centres unmarked) is 170 to 172 °C

// field: melting point; key: O=C(O)C(CN1C(=O)CNC1=O)CS(=O)(=O)c1ccc(-c2ccc(Cl)cc2)cc1 (centres unmarked) ; value = 188 to 190 °C

O=C(O)C(CSc1ncccn1)CS(=O)(=O)c1ccc(-c2ccc(Cl)cc2)cc1 (centres unmarked) yielded melting point of 166 to 168 °C

Sure, the documented melting point for O=C(O)C(CSc1nccs1)CS(=O)(=O)c1ccc(-c2ccc(Cl)cc2)cc1 (centres unmarked) is 152 to 154 °C

Record O=C(O)C(CSc1ccccc1)CS(=O)(=O)c1ccc(-c2ccc(Cl)cc2)cc1 (racemic) . Reported melting point: 158 to 162 °C

Measured melting point of Cn1nnnc1SCC(CS(=O)(=O)c1ccc(-c2ccc(Cl)cc2)cc1)C(=O)O (centres unmarked) : 98 to 100 °C

// field: melting point; key: O=C(NO)C(CN1C(=O)CNC1=O)CS(=O)(=O)c1ccc(-c2ccc(Cl)cc2)cc1 (centres unmarked) ; value = 150 to 156 °C

* * *

measurement.target: UniProt:P08253
method.summary: MMP inhibition, internal fluorescence quenching method (MCA peptide substrate)
Assay type: biochemical
condition.set: Protocol A: Tris/HCl pH 6.5, 37° C., MMP-2 19.2 picoM, substrate 3 μM; carboxylic acids; read-out: MMP-2 Ki
pKi: −log10 of the molar value.
Returns satisfied if the recorded pKi is greater than or equal to 8, and not satisfied otherwise.

Tell me whether pKi is at least 8 here: CN1C(=O)N(CC(CS(=O)(=O)c2ccc(-c3ccccc3)cc2)C(=O)O)C(=O)C1(C)C (centres unmarked)
not satisfied

Can CC(=O)Nc1ccc(OCC(CS(=O)(=O)c2ccc(-c3ccc(Cl)cc3)cc2)C(=O)O)cc1 (centres unmarked) be said to have pKi at or above 8?
not satisfied

Determine whether this molecule has pKi no lower than 8: N#Cc1ccc(C(=O)Nc2ccc(S(=O)(=O)CC(COc3ccccc3)C(=O)O)cc2)cc1 (centres unmarked)
satisfied

* * *

measurement.target: Human gelatinase-A (MMP-2) (Homo sapiens)
Sequence (P08253 110-660): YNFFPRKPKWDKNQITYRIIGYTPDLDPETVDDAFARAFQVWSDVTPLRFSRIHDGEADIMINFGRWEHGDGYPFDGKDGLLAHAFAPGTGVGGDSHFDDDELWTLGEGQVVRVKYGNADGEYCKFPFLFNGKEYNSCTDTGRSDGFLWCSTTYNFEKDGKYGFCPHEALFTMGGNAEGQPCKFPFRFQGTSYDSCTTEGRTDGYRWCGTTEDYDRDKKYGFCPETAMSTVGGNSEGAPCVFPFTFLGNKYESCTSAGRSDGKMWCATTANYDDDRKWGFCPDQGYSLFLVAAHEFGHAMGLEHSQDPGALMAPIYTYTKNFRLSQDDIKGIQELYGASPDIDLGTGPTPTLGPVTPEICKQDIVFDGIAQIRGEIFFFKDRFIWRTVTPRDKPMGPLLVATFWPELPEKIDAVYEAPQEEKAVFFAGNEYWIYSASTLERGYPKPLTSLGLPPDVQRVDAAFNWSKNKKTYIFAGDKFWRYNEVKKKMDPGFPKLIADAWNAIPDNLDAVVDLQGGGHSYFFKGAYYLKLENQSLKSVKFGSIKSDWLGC
method.summary: MMP inhibition, internal fluorescence quenching method (MCA peptide substrate)
Format: biochemical
condition.set: Protocol B: pH 7.4, 37° C.; hydroxamic acids (X is —NHOH); read-out: MMP-2 Ki (picoM)
assay.metric: pKi
Please treat pKi as minus the base-10 logarithm of the molar concentration.

Sure, the documented pKi for CN1C(=O)N(CC(CS(=O)(=O)c2ccc(-c3ccc(Cl)cc3)cc2)C(=O)NO)C(=O)C1(C)C (stereo not shown) [Example 8] is 9.97

Record O=C(NO)C(CSc1ccccc1)CS(=O)(=O)c1ccc(-c2ccc(Cl)cc2)cc1 (stereo not shown) [Example 4] . Reported pKi: 9.80

Memo: CC1(C)NC(=O)N(CC(CS(=O)(=O)c2ccc(-c3ccc(Cl)cc3)cc2)C(=O)NO)C1=O (stereo not shown) [Example 10] , reported pKi: 10.30

For record O=C(NO)C(CN1C(=O)CNC1=O)CS(=O)(=O)c1ccc(-c2ccc(Cl)cc2)cc1 (stereo not shown) [Example 12] the listed pKi is 10.16

* * *

measurement.target: Human fibroblast collagenase (MMP-1) (Homo sapiens, UniProt P03956)
Sequence (P03956 101-269): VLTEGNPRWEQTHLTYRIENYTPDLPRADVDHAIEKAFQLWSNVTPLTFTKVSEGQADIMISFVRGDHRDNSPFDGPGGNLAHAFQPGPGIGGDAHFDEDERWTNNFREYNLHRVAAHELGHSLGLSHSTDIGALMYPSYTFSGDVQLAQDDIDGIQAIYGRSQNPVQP
method.summary: MMP inhibition, internal fluorescence quenching method (MCA peptide substrate)
Format: biochemical
condition.set: Protocol B: pH 7.4, 37° C.; hydroxamic acids (X is —NHOH); read-out: MMP-1 Ki (picoM)
assay.metric: pKi
Reminder that pKi is minus the log10 of a molar concentration.

The value of pKi measured for the compound CN1C(=O)N(CC(CS(=O)(=O)c2ccc(-c3ccc(Cl)cc3)cc2)C(=O)NO)C(=O)C1(C)C (stereo not shown) turned out to be 7.57

Documented pKi of O=C(NO)C(CSc1ccccc1)CS(=O)(=O)c1ccc(-c2ccc(Cl)cc2)cc1 (stereo not shown) : 6.83

So for CC1(C)NC(=O)N(CC(CS(=O)(=O)c2ccc(-c3ccc(Cl)cc3)cc2)C(=O)NO)C1=O (stereo not shown) , the logged pKi turned out to be 7.90

The reported value for O=C(NO)C(CN1C(=O)CNC1=O)CS(=O)(=O)c1ccc(-c2ccc(Cl)cc2)cc1 (stereo not shown) in terms of pKi is 7.77

* * *

measurement.target: Human gelatinase-A (MMP-2) (Homo sapiens)
method.summary: MMP inhibition, internal fluorescence quenching method (MCA peptide substrate)
Assay type: biochemical
condition.set: Protocol A: Tris/HCl pH 6.5, 37° C., MMP-2 19.2 picoM, substrate 3 μM; carboxylic acids; read-out: MMP-2 Ki
Give pKi for every item shown.
Please express pKi as -log10 of the molar concentration.

The measured pKi associated with CC1(C)NC(=O)N(CC(CS(=O)(=O)c2ccc(-c3ccc(Cl)cc3)cc2)C(=O)O)C1=O (stereo not drawn) [Example 9] reads 8.52

// sample Nc1nnc(SCC(CS(=O)(=O)c2ccc(-c3ccc(Cl)cc3)cc2)C(=O)O)s1 (stereo not drawn) [Example 23] , its pKi was 7.60

Per the records, this molecule ( CN1C(=O)N(CC(CS(=O)(=O)c2ccc(-c3ccc(Cl)cc3)cc2)C(=O)O)C(=O)C1(C)C (single isomer, unassigned) [6, Isomer 1] ) has pKi equal to 8.43

Kindly note the recorded pKi for Cn1nnnc1SCC(CS(=O)(=O)c1ccc(-c2ccc(Cl)cc2)cc1)C(=O)O (stereo not drawn) [Example 32] , which is 7.59

Quick note, pKi for Cc1nnc(SCC(CS(=O)(=O)c2ccc(-c3ccc(Cl)cc3)cc2)C(=O)O)s1 (stereo not drawn) [Example 36] landed at 7.48

Per the record, O=C(O)C(CSc1ncccn1)CS(=O)(=O)c1ccc(-c2ccc(Cl)cc2)cc1 (stereo not drawn) [Example 22] has pKi of 8.10

# molecule O=C(O)C(CN1C(=O)CNC1=O)CS(=O)(=O)c1ccc(-c2ccc(Cl)cc2)cc1 (stereo not drawn) [Example 11] ; its pKi = 8.40

Entry under test: CCCCN1CC(=O)N(CC(CS(=O)(=O)c2ccc(-c3ccc(Cl)cc3)cc2)C(=O)O)C1=O (stereo not drawn) [Example 13] . Its pKi was 7.92

So, O=C(Nc1ccc(S(=O)(=O)CC(CSc2ccccc2)C(=O)O)cc1)c1ccc(Cl)cc1 (stereo not drawn) [Example 21] ? Its pKi was 8.85

* * *

measurement.target: Human fibroblast collagenase (MMP-1) (Homo sapiens)
method.summary: MMP inhibition, internal fluorescence quenching method (MCA peptide substrate)
Format: biochemical
condition.set: Protocol A: pH 6.5, 37° C., enzyme 200 picoM, substrate 3 μM; carboxylic acids; read-out: MMP-1 Ki
Counter-ions that a name gives are not always drawn.
Please respond with reported Ki for every item in the list.
The response must be a number in µM with no trailing unit.

For O=C(O)C(CSc1ccc(O)cc1)CS(=O)(=O)c1ccc(-c2ccc(Cl)cc2)cc1 (stereo not drawn) [Example 16] the compound record lists Ki as 9.7

Looking up O=C(O)C(CSc1ccccn1)CS(=O)(=O)c1ccc(-c2ccc(Cl)cc2)cc1 (stereo not drawn) [Example 20] , I see its Ki listed as 6.29

Query N#Cc1ccc(C(=O)Nc2ccc(S(=O)(=O)CC(COc3ccccc3)C(=O)O)cc2)cc1 (stereo not drawn) [Example 35] yields Ki of 67.5

According to the records, this compound O=C(O)C(CSc1ncccn1)CS(=O)(=O)c1ccc(-c2ccc(Cl)cc2)cc1 (stereo not drawn) [Example 22] displays Ki of 8.03

Measured Ki of O=C(Nc1ccc(S(=O)(=O)CC(CSc2ccccc2)C(=O)O)cc1)c1ccccc1 (stereo not drawn) [Example 15] : 81.1

Ki for CC(=O)Nc1ccc(OCC(CS(=O)(=O)c2ccc(-c3ccc(Cl)cc3)cc2)C(=O)O)cc1 (stereo not drawn) [Example 30] is 19.6

Reported Ki of CN1C(=O)N(CC(CS(=O)(=O)c2ccc(-c3ccc(Cl)cc3)cc2)C(=O)O)C(=O)C1(C)C (single isomer, unassigned) [6, Isomer 1] : 3.6

get_value(item= CCCCN1CC(=O)N(CC(CS(=O)(=O)c2ccc(-c3ccc(Cl)cc3)cc2)C(=O)O)C1=O (stereo not drawn) [Example 13] , readout=Ki) returns 5.29

Ki in this record for O=C(O)C(COc1ccccc1)CS(=O)(=O)c1ccc(-c2ccc(Cl)cc2)cc1 (stereo not drawn) [Example 17, sodium salt] : 14.7

Looking up O=C(Nc1ccc(S(=O)(=O)CC(COc2ccccc2)C(=O)O)cc1)c1ccc(Cl)cc1 (stereo not drawn) [Example 34] , I see its Ki listed as 54

What the record says about O=C(Nc1ccc(S(=O)(=O)CC(CSc2ccccc2)C(=O)O)cc1)c1ccc(Cl)cc1 (stereo not drawn) [Example 21] : Ki is 50.6
